TESTED_ON: hM1 (human Muscarinic receptor subtype 1) (Homo sapiens, UniProt P11229)
Construct: expressed in transfected cells; host or cells: CHO cells (Chinese hamster ovary cells, ATCC)
Sequence (P11229 whole entry): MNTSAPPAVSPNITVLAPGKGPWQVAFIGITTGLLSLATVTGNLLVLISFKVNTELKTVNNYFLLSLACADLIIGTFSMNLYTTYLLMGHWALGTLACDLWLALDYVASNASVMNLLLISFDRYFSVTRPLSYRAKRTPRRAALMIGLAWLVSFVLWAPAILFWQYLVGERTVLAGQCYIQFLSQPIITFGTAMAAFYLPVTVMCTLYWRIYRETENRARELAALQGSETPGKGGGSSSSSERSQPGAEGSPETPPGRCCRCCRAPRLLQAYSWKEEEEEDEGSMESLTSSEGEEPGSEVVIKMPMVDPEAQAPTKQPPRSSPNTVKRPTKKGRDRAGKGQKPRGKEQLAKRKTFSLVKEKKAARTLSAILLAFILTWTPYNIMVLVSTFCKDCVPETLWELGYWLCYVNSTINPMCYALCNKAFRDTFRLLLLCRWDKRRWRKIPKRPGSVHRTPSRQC
TEST_DETAILS: Human M1 calcium mobilization FLIPR assay
Type: cell-based
CONDITION_SUMMARY: hM1 expressed in CHO cells, intracellular Ca2+ release, read-out: hM1 EC50
Label label 1 when EC50 is strictly below 80 nM; at or above that, label label 0.

Reference set, count: 3
CC(C)OC(=O)N1CCC(C)(N2CCC(n3c(=O)[nH]c4ccccc43)CC2)C1 (stereo not drawn)	label 0
COC(=O)N1CCC(C)(N2CCC(N3C(=O)Cc4cc(F)ccc43)CC2)C1 (racemic)	label 1
COC(=O)N1CCC(C)(N2CCC(n3c(=O)[nH]c4cc(F)ccc43)CC2)C1 (single isomer, unassigned) [Example 37]	label 1

Query molecule follows.
Prompt: I'd appreciate it if you could check whether CCOC(=O)N1CCC(C)(N2CCC(N3C(=O)Cc4ccc(C)cc43)CC2)C1 (single isomer, unassigned) [Example 69] has EC50 smaller than 80 nM.
Response: label 1

Sourced from patent US20090221642A1
